These measurements were taken from patent US20230219965A1.

# assayMethodText: ADME solubility determination in PBS at pH 2.0 and pH 7.4
# Format: physicochemical
# testConditions: phosphate buffered saline, 25 °C, pH 2, aqueous buffer, thermodynamic from solid, PBS pH 2.0, 25° C., read-out: Solubility at pH 2.0
Each item that follows carries a reported solubility at 24 h.

Recorded results for 6 compounds are shown here.
>  <compound>
Cc1cnn(C(C)C)c1-c1cc2n(n1)C(C)CC(=O)N2Cc1ccc(-c2nc(C(F)(F)F)cn2C)cc1 (stereo not shown) [Example 36]

>  <readoutValue>
≥ 10 µM

$$$$
>  <compound>
CC(C)n1cc(C(F)(F)F)nc1-c1ccc([C@@H](C)N2C(=O)CCn3nc(-c4c(Cl)cnn4C(C)C)nc32)cc1 [Example 178]

>  <readoutValue>
≥ 10 µM

$$$$
>  <compound>
COc1ncnc(C2CC2)c1-c1nc2n(n1)CCC(=O)N2Cc1ccc(-c2nc(C(F)(F)F)cn2C)cc1 [Example 43]

>  <readoutValue>
≥ 10 µM

$$$$
>  <compound>
COc1cc(C)nn1-c1ccc(CN2C(=O)CCn3nc(-c4c(Cl)cnn4C(C)C)cc32)cc1 [Example 135]

>  <readoutValue>
< 10 µM

$$$$
>  <compound>
CCn1cc(C(F)(F)F)nc1-c1ccc(N[C@@H]2CCCn3nc(-c4c(Cl)cnn4[C@@H](C)CF)cc32)cc1 (single isomer, unassigned) [Example 324]

>  <readoutValue>
< 10 µM

$$$$
>  <compound>
CCn1cc(C(F)(F)F)nc1-c1ccc(C(C)N2C(=O)CCn3nc(-c4c(OC)ncnc4C4CC4)cc32)cc1 (stereo not shown) [Example 114]

>  <readoutValue>
≥ 10 µM

$$$$

Please examine the following record next.
Record CCn1cc(C(F)(F)F)nc1-c1ccc(C(C)n2c(=O)ccn3nc(-c4c(OC)ncnc4C4CC4)nc23)cc1 (stereo not shown) [Example 340] . Reported solubility at 24 h: ≥ 10 µM

----------
# experimentalSystem: USP1/UAF1 enzyme (Homo sapiens)
# Sequence (O94782 whole entry): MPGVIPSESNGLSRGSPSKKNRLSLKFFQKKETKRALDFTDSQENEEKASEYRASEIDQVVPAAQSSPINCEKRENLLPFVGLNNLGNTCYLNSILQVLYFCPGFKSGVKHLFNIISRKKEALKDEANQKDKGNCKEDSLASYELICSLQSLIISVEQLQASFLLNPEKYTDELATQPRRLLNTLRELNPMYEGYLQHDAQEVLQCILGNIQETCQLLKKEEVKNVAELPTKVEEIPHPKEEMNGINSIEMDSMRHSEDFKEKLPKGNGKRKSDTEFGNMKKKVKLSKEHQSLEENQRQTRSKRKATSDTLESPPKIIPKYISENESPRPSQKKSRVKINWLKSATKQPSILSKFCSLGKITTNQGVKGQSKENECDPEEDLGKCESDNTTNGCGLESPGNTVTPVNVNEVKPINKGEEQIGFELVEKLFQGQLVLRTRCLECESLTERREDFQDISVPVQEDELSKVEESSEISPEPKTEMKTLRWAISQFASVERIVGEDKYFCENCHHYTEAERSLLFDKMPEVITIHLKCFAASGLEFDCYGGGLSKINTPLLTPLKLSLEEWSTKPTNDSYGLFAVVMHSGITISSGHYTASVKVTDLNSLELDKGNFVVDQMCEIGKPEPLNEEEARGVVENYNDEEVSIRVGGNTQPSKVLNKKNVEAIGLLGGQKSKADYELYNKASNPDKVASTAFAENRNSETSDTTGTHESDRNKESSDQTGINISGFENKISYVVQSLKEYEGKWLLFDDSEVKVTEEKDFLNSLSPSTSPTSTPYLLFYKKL
# Sequence (Q8TAF3 whole entry partner): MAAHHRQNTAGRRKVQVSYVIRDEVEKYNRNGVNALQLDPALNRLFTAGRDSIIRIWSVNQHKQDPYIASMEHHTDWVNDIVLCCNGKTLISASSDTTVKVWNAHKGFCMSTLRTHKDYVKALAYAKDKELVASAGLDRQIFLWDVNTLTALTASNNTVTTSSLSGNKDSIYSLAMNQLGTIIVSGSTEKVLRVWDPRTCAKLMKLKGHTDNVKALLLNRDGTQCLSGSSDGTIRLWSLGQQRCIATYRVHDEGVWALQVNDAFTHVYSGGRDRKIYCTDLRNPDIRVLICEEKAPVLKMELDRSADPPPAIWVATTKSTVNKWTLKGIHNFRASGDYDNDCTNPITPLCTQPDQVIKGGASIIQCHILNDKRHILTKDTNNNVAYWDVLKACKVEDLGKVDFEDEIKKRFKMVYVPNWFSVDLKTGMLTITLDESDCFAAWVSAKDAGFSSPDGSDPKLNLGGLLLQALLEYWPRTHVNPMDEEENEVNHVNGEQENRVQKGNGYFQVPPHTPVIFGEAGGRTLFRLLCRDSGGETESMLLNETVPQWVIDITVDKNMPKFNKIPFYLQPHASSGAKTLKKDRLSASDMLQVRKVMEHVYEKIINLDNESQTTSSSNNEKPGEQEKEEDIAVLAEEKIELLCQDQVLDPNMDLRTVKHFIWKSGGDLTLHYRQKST
# assayMethodText: USP1/UAF1 deubiquitination assay (ubiquitin-rhodamine 110 substrate)
# testConditions: read-out: USP1 IC50 (Ub-Rho)
reportedProperty: IC50

>  <compound>
COc1cccnc1-c1ccc(CN2C(=O)CCn3nc(-c4c(OC)ncnc4C4CC4)cc32)cc1F

>  <experimentalSystem>
USP1/UAF1 enzyme (Homo sapiens)

>  <readoutValue>
100 to 500 nM

$$$$
>  <compound>
CCn1cc(C(F)(F)F)nc1-c1ccc([C@@H](C)N2C(=O)CCn3nc(-c4c(Cl)cnn4C(C)C)nc32)cc1

>  <experimentalSystem>
USP1/UAF1 enzyme (Homo sapiens)

>  <readoutValue>
< 100 nM

$$$$
>  <compound>
COc1ncnc(C2CC2)c1-c1cc2n(n1)CCC(=O)N2[C@@H](C)c1ccc(-c2nc(C(F)(F)F)cn2C(C)C)cc1

>  <experimentalSystem>
USP1/UAF1 enzyme (Homo sapiens)

>  <readoutValue>
100 to 500 nM

$$$$
>  <compound>
COc1cc(C#N)nn1-c1ccc(CN2C(=O)CCn3nc(-c4c(Cl)cnn4C(C)C)cc32)cc1

>  <experimentalSystem>
USP1/UAF1 enzyme (Homo sapiens)

>  <readoutValue>
< 100 nM

$$$$
>  <compound>
CC1CCn2nc(-c3c(Cl)cnn3C(C)C)cc2N1Cc1ccc(-c2nc(C(F)(F)F)cn2C(C)C)c(F)c1 (centres unmarked)

>  <experimentalSystem>
USP1/UAF1 enzyme (Homo sapiens)

>  <readoutValue>
< 100 nM

$$$$

response.value for CC(C)n1ncc(Cl)c1-c1cc2n(n1)CCC(=O)N2Cc1ccc(-c2nc(C(F)(F)F)n(C)n2)cc1 (field: IC50) = 100 to 500 nM

GET /value?item= COc1ncnc(C2CC2)c1-c1nc2n(n1)CCC(=O)N2C(C)c1ccc(-c2nc(C(F)(F)F)cn2C)cc1 (centres unmarked) &field=IC50 returns < 100 nM

Reported IC50 of CCn1cc(C(F)(F)F)nc1-c1ccc([C@H](C)N2C(=O)CCn3nc(-c4c(Cl)cnn4C(C)C)nc32)cc1F : < 100 nM

The compound listed as CC(C)n1ncc(Cl)c1-c1cc2n(n1)CCC(=O)N2Cc1ccc(-c2nn(C)cc2C#N)c(Cl)c1 has a reported IC50 of > 500 nM

Data point: COc1cc(C)nn1-c1ccc(CN2C(=O)CCn3nc(-c4c(Cl)cnn4C(C)C)cc32)cc1 ; IC50 = < 100 nM

Given item CCn1cc(C(F)(F)F)nc1-c1ccc([C@@H](C)N2C(=O)CCn3nc(-c4c(OC)ncnc4C4CC4)cc32)cc1F , the value recorded as its IC50 is < 100 nM

Entry CC(C)n1ncc(Cl)c1-c1cc2n(n1)CCC(=O)N2Cc1ccc(-c2ncccc2OC2CC2)c(Cl)c1 — recorded IC50 = < 100 nM

Item: CCn1cc(C(F)(F)F)nc1-c1ccc(C(C)N2C(=O)C(C)Cn3nc(-c4c(OC)ncnc4C4CC4)nc32)cc1 (centres unmarked) | IC50: < 100 nM

Form field IC50, entry Cc1cnn(C(C)C)c1-c1cc2n(n1)C(C)CC(=O)N2Cc1ccc(-c2nc(C(F)(F)F)cn2C)cc1 (centres unmarked) : < 100 nM
